// cross-source set; read-out = IC50; system = Dual specificity protein kinase TTK (Homo sapiens, UniProt P33981)
Target: Dual specificity protein kinase TTK (Homo sapiens, UniProt P33981)
Sequence (P33981 whole entry): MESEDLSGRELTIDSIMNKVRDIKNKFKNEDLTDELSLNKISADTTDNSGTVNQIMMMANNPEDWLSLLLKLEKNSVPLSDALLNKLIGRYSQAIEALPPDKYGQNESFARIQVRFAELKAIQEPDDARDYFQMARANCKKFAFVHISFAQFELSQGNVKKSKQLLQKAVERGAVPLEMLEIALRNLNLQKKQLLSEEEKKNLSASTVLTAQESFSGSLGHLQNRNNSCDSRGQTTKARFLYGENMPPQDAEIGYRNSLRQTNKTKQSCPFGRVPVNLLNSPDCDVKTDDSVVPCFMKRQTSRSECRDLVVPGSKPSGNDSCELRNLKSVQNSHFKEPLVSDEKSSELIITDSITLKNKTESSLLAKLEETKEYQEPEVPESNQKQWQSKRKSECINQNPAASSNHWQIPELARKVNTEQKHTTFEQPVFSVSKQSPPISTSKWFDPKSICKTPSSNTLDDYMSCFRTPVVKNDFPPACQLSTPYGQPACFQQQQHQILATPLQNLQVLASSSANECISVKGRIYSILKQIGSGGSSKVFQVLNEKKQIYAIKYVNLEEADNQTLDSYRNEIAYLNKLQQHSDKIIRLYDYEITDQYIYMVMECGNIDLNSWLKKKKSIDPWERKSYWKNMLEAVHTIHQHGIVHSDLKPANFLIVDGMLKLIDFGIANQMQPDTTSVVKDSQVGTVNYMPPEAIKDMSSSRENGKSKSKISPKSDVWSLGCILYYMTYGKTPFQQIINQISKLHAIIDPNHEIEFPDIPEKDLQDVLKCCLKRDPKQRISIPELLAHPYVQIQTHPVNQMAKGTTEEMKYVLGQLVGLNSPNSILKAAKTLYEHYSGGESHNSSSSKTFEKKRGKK
measured quantity: IC50 (µM)

* COc1cc(N2CCOCC2)ccc1Nc1nc(-n2ccc3cnccc32)c2cc[nH]c2n1 | 0.154

[1] CCOc1cc(-c2nncn2C)ccc1Nc1ncc2cc(C)nc(N3CCC(C#N)C3)c2n1 (stereo not given)
[2] Cc1ccccc1Nc1ncc2c(n1)-c1c(c(C(N)=O)nn1C)CC2
Which of the two items, 1 and 2 , has the greater recorded IC50? Refer to your chosen item by its label in the answer.
2

---

// cross-source set; read-out = IC50; system = UniProt P33981
Target: UniProt P33981
Sequence (P33981 whole entry): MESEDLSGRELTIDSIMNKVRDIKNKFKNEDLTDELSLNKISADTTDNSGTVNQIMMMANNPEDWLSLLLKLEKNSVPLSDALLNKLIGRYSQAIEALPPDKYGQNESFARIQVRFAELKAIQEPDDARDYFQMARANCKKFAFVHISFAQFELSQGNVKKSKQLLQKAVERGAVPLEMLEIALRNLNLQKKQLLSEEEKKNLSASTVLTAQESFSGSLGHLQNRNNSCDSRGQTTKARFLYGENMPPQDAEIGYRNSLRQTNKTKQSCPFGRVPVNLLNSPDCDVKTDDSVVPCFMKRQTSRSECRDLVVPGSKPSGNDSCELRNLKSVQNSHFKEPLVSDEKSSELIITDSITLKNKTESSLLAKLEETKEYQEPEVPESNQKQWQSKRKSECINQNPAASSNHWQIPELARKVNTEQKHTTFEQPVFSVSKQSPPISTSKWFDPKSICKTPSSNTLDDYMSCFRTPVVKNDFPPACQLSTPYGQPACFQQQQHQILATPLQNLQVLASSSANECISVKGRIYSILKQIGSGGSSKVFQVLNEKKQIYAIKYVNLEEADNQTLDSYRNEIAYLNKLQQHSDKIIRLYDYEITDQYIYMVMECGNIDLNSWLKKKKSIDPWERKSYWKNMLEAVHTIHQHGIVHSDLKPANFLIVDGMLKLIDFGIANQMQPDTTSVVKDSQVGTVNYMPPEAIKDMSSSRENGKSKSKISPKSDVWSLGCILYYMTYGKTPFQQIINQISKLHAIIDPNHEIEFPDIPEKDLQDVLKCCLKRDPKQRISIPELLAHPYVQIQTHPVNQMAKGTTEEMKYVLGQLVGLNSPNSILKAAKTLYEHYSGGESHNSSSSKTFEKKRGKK
measured quantity: IC50 (nM)

Some compounds with known IC50 results, for comparison:
* CCCNC(=O)c1ccc(Nc2nc(NCC(F)(F)F)c3cc[nH]c3n2)cc1 | 991
* CCc1n[nH]c(CC)c1NC(=O)c1ccn2c1CCc1cnc(Nc3ccc(N4CCN(C)CC4)cc3OC)nc1-2 | 1.2
* Cc1cc(N2CCOCC2)ccc1Nc1ncc2ccn(C3CCCCC3)c2n1 | 22
* COc1cc(N2CCOCC2)ccc1Nc1ncc2ccn(C3CCCCC3)c2n1 | 46
* CCc1cccc(CC)c1NC(=O)c1nn(C)c2c1CCc1cnc(Nc3ccc(C(=O)N4CCC[C@H]4CN4CCCC4)cc3OC(F)(F)F)nc1-2 | 202

[P] CCOc1cc(-c2nncn2C)ccc1Nc1ncc2cc(C)nc(N3CCC(C)(OC)CC3)c2n1
[Q] CCc1cccc(CC)c1NC(=O)c1nn(C)c2c1CCc1cnc(Nc3ccccc3OC(F)(F)F)nc1-2
[R] Nc1nn(-c2nc(Nc3ccccc3)nc3[nH]ccc23)c2ccccc12
[S] CCc1cccc(CC)c1NC(=O)c1nn(C)c2c1CCc1cnc(Nc3ccc(C(N)=O)cc3OC)nc1-2
[T] CCOc1cc(-c2nncn2C)ccc1Nc1ncc2cc(C)nc(N3CC(F)(F)C3)c2n1
With regard to IC50, arrange the entries in ascending order, please. Use the labels to give the requested order.
P, T, S, R, Q
